Measured values drawn from ChEMBL document CHEMBL5579827 for this set.

assay.summary: Metabolic stability in human liver microsomes assessed as half life at 50 uM preincubated with NADPH for 5 mins followed by compound addition and measured upto 60 mins by LC-MS/MS analysis
Type: ADME, Microsome
endpoint.name: half-life at 50 µM

INSERT INTO results (compound, recorded_result) VALUES
  ('CCCCC(O)c1ccc(Br)cc1-c1nn[nH]n1 (stereo unspecified)', '> 3.11 h');

====

assay.summary: Cmax in Sprague-Dawley rat at 10 mg/kg, po measured at 2 hrs by LC-MS/MS analysis
Assay type: ADME, organism-based
condition.description: in vivo
endpoint.name: Cmax (ng/mL)

INSERT INTO assay_data (compound, endpoint_name, units_label, recorded_result) VALUES
  ('CCCCC(O)c1ccc(Br)cc1-c1nn[nH]n1 (stereo unspecified)', 'Cmax', 'ng/mL', 1070);

====

assay.summary: Cmax in ICR mouse at 1 mg/kg, iv measured upto 8 hrs by LC-MS/MS analysis
Format: ADME, organism-based
condition.description: in vivo
endpoint.name: Cmax (ng/mL)

INSERT INTO assay_data (compound, endpoint_name, units_label, recorded_result) VALUES
  ('CCCCC(O)c1ccc(Br)cc1-c1nn[nH]n1 (stereo unspecified)', 'Cmax', 'ng/mL', 3760);

====

assay.summary: Half-life in Sprague-Dawley rat at 10 mg/kg, po measured upto 8 hrs by LC-MS/MS analysis
Assay type: ADME, organism-based
condition.description: Sprague-Dawley, in vivo
endpoint.name: half-life (h)

INSERT INTO assay_data (compound, recorded_result) VALUES
  ('CCCCC(O)c1ccccc1-c1nn[nH]n1 (configuration not stated)', 4.65),
  ('CCCCC(O)c1ccccc1-c1nnn(C)n1 (configuration not stated)', 7.22);

====

assay.summary: Tmax in ICR mouse at 10 mg/kg, po measured upto 8 hrs by LC-MS/MS analysis
Format: ADME, organism-based
condition.description: in vivo
endpoint.name: Tmax

INSERT INTO measurements (molecule, recorded_result) VALUES
  ('CCCCC(O)c1ccc(Br)cc1-c1nn[nH]n1 (stereo unspecified)', '15 min');

====

assay.summary: Metabolic stability in dog liver microsomes assessed as half life at 50 uM preincubated with NADPH for 5 mins followed by compound addition and measured upto 60 mins by LC-MS/MS analysis
Type: ADME, Canis lupus familiaris, Microsome
endpoint.name: half-life at 50 µM

INSERT INTO results (molecule, recorded_result) VALUES
  ('CCCCC(O)c1ccc(Br)cc1-c1nn[nH]n1 (stereo unspecified)', '> 3.11 h');

====

assay.summary: Metabolic stability in mouse liver microsomes assessed as intrinsic clearance at 50 uM preincubated with NADPH for 5 mins followed by compound addition and measured upto 60 mins by LC-MS/MS analysis
Type: ADME, Microsome
condition.description: read-out: CLH
endpoint.name: microsomal CLint at 50 µM (µL/min/mg)

INSERT INTO measurements (molecule, recorded_result) VALUES
  ('CCCCC(O)c1ccc(Br)cc1-c1nn[nH]n1 (stereo unspecified)', 89.1);

====

assay.summary: AUC(0 to infinity) in ICR mouse at 1 mg/kg, iv measured upto 8 hrs by LC-MS/MS analysis
Assay type: ADME, organism-based
condition.description: in vivo
endpoint.name: AUC(0-inf) (ng·h/mL)

INSERT INTO results (compound, units_label, recorded_result) VALUES
  ('CCCCC(O)c1ccc(Br)cc1-c1nn[nH]n1 (stereo unspecified)', 'ng·h/mL', 550);
